Data credit: the nanobody polyreactivity screen of Harvey et al. (2022)

Test: yeast display, Sf9 membrane polyspecificity reagent, FACS + sequencing; frameworks hold sequencing errors
endpoint-label: polyreactivity (PSR sort gate)

Worked examples follow.
QVQLVESGGGLVQAGGSLRLSCAASGFIFSKYAMGWYRQAPGKERELVAAITGGGSTNYADSVKGRFTISRDNAKNTVYLQMTSLKPEDTAVYYCAARGFTLTDYDRDLYYWGQGTQVTVSS	low polyreactivity
QVQLVESGGGLVQAAGSLRLSCAASGNIFVRYVMGWYRQAPGKERELVAAITTSGGSTRYADSVKGRFTISRDNAKNSVYLQMNSLKPEDTAVYYCAARFRYRHLTYGYWGQGTQVTVSS	high polyreactivity
QFQLVESGGGLVQAGGSLRLSCAASGRIFYRNAMGWYRQAPGKERELVAAINQTGGSTYYADSVKGRFTISGDNAKNTVYLQMNSLKPDDTAVYYCAVLGQVPTGSSRRYYWGQGTQVTVSS	high polyreactivity
QVQLVESGGGLVQAAGSLRLSCAASGSTFDNKVMGWYRQAPGKERELVATITWGDGSTSYADSVKGRFTISRDIAKNTVYLELNSRKREDTAVYFCAAGEYYHRIFLWYVYWGQGTKVTVSS	low polyreactivity

QUERY: Bench note: what polyreactivity (PSR sort gate) did `QVQLVESGGGLVQAGGSLRLSCAASGSIFFPNAMGWYRQAPGKERELVAAITSTSTNYADSVKGRCTISRDNAKNTVYLQMNSLKPEDTAVYYCAADGEFRRAWYEGVYWGQGTQVTVSS` show?
RESULT: low polyreactivity

QUERY: Entry under review: `QVQLVESGGGLVQAGGSLRLSCAASGRISRCYVMGRYRHAPGTERELVAAITWNSGSTYYADSVKGRFTISRDNAKNTVYLQMNSLTPEDTAVYYCAGVLYSRYQQYDYWGQGTQVTVSS` . Reported polyreactivity (PSR sort gate)?
RESULT: high polyreactivity

QUERY: Entry `QVQLVESGGGLVQAGGILRLSCADSGSTFIGYAMGWYRQAPRKERELFAAISKSGGSTYYADSVKGRFTISRDNAKNTVYLQMNSLKPEDTAVYYCIVDTSRYVSWNDYWGQGTQVTVSS` has what polyreactivity (PSR sort gate)?
RESULT: high polyreactivity

QUERY: Could you tell me which polyreactivity (PSR sort gate) is on file for `QVQLLESGGGLDQAGGTLRLSWAASGIIFSFYTMGWYRQAPGKERELVAAITWSGGSTYYADSVKGRFTISRDNAKNTVYLQMNSLKPDDTAVYYCIARNPGRKRSQGYSWGQGTQVTVSS` ?
RESULT: low polyreactivity

QUERY: Reported polyreactivity (PSR sort gate) for `QVQLVESGGGLVQAGGSLRLSCAASGSTFSRYPMGWSRQAPGKERELVAAISWGGNTYYADSVKGRFTISRDNAKNTVYLQMNSLQPEDTAVYYCNRYSKLYNTMDYWGQGTQVTVSS` : what is it?
RESULT: high polyreactivity

QUERY: Report polyreactivity (PSR sort gate) for `QVQLVESGGGLVQAGGSLRLSCAASGSTFRVNAMGWYRQAPGKEREFVATIRGGGVRTYYADSVKGRFTISRDNAKNTVYLQMNSLKPEDTAVYYCNRKFYWRRDYWGQGTQVTVSS` please.
RESULT: high polyreactivity

QUERY: Reported polyreactivity (PSR sort gate), sequence `QVQLVESGGGLVQAGGSLRLSCAASGSIFRYYAMGWYRQAPGKEREFVAAISRSGGSTYYADSVKGRFTISRDNAKNTVYLQMNSLKPEDTAVYYCAASYYRYFVSLGYDYWGQGTQVTVSS` : ____
RESULT: high polyreactivity
